Test system: NCI-H226 lung
Assay: NCI tumour cell line growth inhibition, 48 h
Entries and their TGI values follow.

>  <molecule>
O=C1C=C(NCCc2cc(Br)c(O)c(Br)c2)C(=O)c2[nH]cnc21

>  <target>
NCI-H226 lung

>  <result.qualifier>
>

>  <TGI [µM]>
100

$$$$
>  <molecule>
O=C1NC(=S)NC(=O)C1=Cc1ccc2ccccc2n1

>  <target>
NCI-H226 lung

>  <result.qualifier>
>

>  <TGI [µM]>
100

$$$$
>  <molecule>
Cc1[nH]c(=O)[nH]c(=O)c1C(=O)N(CCO)Cc1ccccc1

>  <target>
NCI-H226 lung

>  <result.qualifier>
=

>  <TGI [µM]>
43.9

$$$$
>  <molecule>
Cc1cccc(N2C(=O)C(=O)C(c3nc4ccccc4s3)C(=O)C2=O)c1C

>  <target>
NCI-H226 lung

>  <result.qualifier>
>

>  <TGI [µM]>
100

$$$$
>  <molecule>
CC(C)(C)n1cc(-c2ccnc(NCCNS(=O)(=O)c3cccc4ccccc34)c2)c(-c2cccc(F)c2)n1

>  <target>
NCI-H226 lung

>  <result.qualifier>
=

>  <TGI [µM]>
43.4

$$$$
>  <molecule>
C=C1C(=O)O[C@H]2[C@H]1CC/C(COC(=O)C(=O)c1cn(C)c3ccc(OC)cc13)=C\CC[C@@]1(C)O[C@@H]21

>  <target>
NCI-H226 lung

>  <result.qualifier>
=

>  <TGI [µM]>
10.1

$$$$
>  <molecule>
CCOC(=O)c1ccc(NC(NC(=O)CC)(C(F)(F)F)C(F)(F)F)cc1

>  <target>
NCI-H226 lung

>  <result.qualifier>
>

>  <TGI [µM]>
100

$$$$
>  <molecule>
Cc1nn(C)c(=S)n(C)c1=O

>  <target>
NCI-H226 lung

>  <result.qualifier>
>

>  <TGI [µM]>
100

$$$$
>  <molecule>
NC(=S)N/N=C(\C(=O)Nc1ccc(Cl)c(Cl)c1)C1=NN(c2ccccc2)C(c2cccc([N+](=O)[O-])c2)CC1=O (centres undefined)

>  <target>
NCI-H226 lung

>  <result.qualifier>
=

>  <TGI [µM]>
93.6

$$$$

###

Test system: U251 CNS
Outcome codes: yes (active), no (inactive)

>  <compound>
CC(C)(C)c1nnc2n(c1=O)N=CC(c1ccc(Br)cc1)S2 (stereo unspecified)

>  <qualitative.label>
no

$$$$
>  <compound>
COc1ccc(/C=C/C(c2cc(OC)c(OC)c(OC)c2)n2cncn2)cc1O (stereo unspecified)

>  <qualitative.label>
yes

$$$$
>  <compound>
C[C@@]12CCC[C@@](C)(C(=O)O)C1CC[C@@]13CC(=O)[C@@](CO)(CCC12)C3 (stereo partly specified)

>  <qualitative.label>
no

$$$$
>  <compound>
C=C(C(=O)OC)[C@@H]1C[C@@H](O)[C@]2(C)CC/C=C(\C)CCC[C@H](C)[C@H](O)C1O2

>  <qualitative.label>
no

$$$$
>  <compound>
CN1c2ccccc2C(C)(C)C12CC(c1ccc(Cl)c(S(=O)(=O)N3CCCC3)c1)=NO2 (stereo unspecified)

>  <qualitative.label>
no

$$$$
>  <compound>
COc1ccc(-c2[nH]ncc2-c2cc(OC)c(OC)c(OC)c2)cc1

>  <qualitative.label>
yes

$$$$
>  <compound>
COc1cccc(C2C(C#N)=C(N)Oc3cc(OC)ccc32)c1 (stereo unspecified)

>  <qualitative.label>
yes

$$$$
>  <compound>
Nc1c(O)c(S(=O)(=O)O)c(O)c2c1C(=O)c1ccccc1C2=O

>  <qualitative.label>
no

$$$$
>  <compound>
CN1CCN(c2cc(Nc3cc(C4CC4)[nH]n3)nc(Nc3ccc(CC(=O)NCc4cccc(F)c4)cc3)n2)CC1

>  <qualitative.label>
no

$$$$
>  <compound>
C=C1CO[C@@H]2C[C@@H]1CCC1(C)OC1CC/C(C)=C/CC[C@@]2(C)O (stereo partly specified)

>  <qualitative.label>
no

$$$$
>  <compound>
COc1ccc2sc3c(NCCCNCCO)nc4ccccc4c3c(=O)c2c1

>  <qualitative.label>
no

$$$$
>  <compound>
NCC(=O)CCC(=O)O

>  <qualitative.label>
no

$$$$
>  <compound>
Clc1ccc(Nc2nc3ccccc3c3occc23)cc1

>  <qualitative.label>
no

$$$$
>  <compound>
COC(=O)[C@]12CC[C@@H](C)[C@H](C)[C@@H]1C1=CC[C@@H]3[C@@]4(C)C=C(O)C(=O)C(C)=C4CC[C@@]3(C)[C@]1(C)CC2

>  <qualitative.label>
no

$$$$
>  <compound>
C=CCNc1cccc2c1C(=O)c1ccccc1C2(O)CC=C (stereo unspecified)

>  <qualitative.label>
no

$$$$
>  <compound>
COc1cccc2c(Nc3ccc(C(=O)NCCN(C)C)cc3)cc(-c3ccccc3)nc12

>  <qualitative.label>
no

$$$$
